Molecular target: T1, CD134 expressed on the cell surface of HT1080_OX40 cells (human, UniProt P43489 29-277); note: test concentration or dose not given here
T1 sequence (looked up): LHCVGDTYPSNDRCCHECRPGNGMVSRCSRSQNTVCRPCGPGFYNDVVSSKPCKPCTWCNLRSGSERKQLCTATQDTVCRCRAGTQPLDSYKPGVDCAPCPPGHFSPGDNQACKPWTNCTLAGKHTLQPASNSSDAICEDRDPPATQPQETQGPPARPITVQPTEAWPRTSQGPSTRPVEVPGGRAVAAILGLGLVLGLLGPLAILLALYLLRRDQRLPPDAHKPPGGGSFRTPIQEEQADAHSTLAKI
Test: cell-based or functional assay
observation type: Functional assay Cross-linked by F(ab′)2 fragment IL-8 (abs. corr.)
One number for each entry, in abs. corr..

binder	uom	assay result
P018.S.12.A.C03 (antibody, V domains shown, V regions on human Ig constant parts; also called AB134_63) VH: QEQLKESGGDLVTPGTPLTLTCTVSGFSLSSYAMAWVRQAPGKGLEYIGFIDTDGSAYYASWAKGRFTISRTSTTVDLKITSPTTEDTATYFCAGDSYGYAGFVYFNLWGPGTLVTVSS VL: DVVMTQTPASVSEPVGGTVTIKCQASQNIYSSLAWYQQKPGQPPKLLIYDASDLASGVPSRFKGSGSGTQFTLTISDLESDDAATYYCQCSYYGVDYVGGFGGGTEVVVK	abs. corr.	2.11
P018.S.03.A.E03 (antibody, V domains shown, V regions on human Ig constant parts; also called AB134_4) VH: QSVEESGGRLVTPGTPLTLTCTVSGFSLSTYGMSWVRQAPGKGLEWIGIIDAGDSPYYASWVKGRFTISKTSTTVDLKITSLTTEDTATYFCARIAGSNHGPFSLWGPGTLVTVSS VL: DVVMTQTPASVSEPVGGTVTINCQASEFISNYLAWYQQKPGQPPKLLIYGASTLASGVPSRFSGSGSGTQFTLTISDLESDDAATYYCQCTAYGSGYVGFGGGTEVVVK	abs. corr.	2.54
P018.S.04.A.F06 (antibody, V domains shown, V regions on human Ig constant parts; also called AB134_13) VH: QSVEESGGRLVTPGTPLTLTCTVSGIDLSSSAMSWVRQAPGKGLEWIGIIGYNDFTYYANWAKGRFTISKTSTTVDLKMTSPTTEDTATYFCARGGSSSYSDYVFDPWGPGTLVTVSS VL: AFEMTQTPSSVSEPVGGTVTIKCQASQSIYSNLAWYQQKPGQRPKLLIYDASDLASGVPSRFSGSGYGTEFTLTISDLESADAATYYCQSYYGISSYGVAFGGGTEVVVK	abs. corr.	2.21
P018.S.12.A.A06 (antibody, V domains shown, V regions on human Ig constant parts; also called AB134_55) VH: QSVEESGGRLVTPGTPLTLTCTVSGFSLSSFAMTWVRQAPGKGLEWIGIISSSGTTYYASWAKGRFTISKTSTTVDLRITSPTTEDTATYFCASHYDDYGDSDALDPWGPGTLVTVSS VL: AAVMTQTPSPVSAAVGGTVTINCQASEDIYSNLAWFQQKPGQPPKLLIYRASTLASGVPSRFSGSGSGTEFTLTISGLQSDDAATYYCLGVDRHISDRAFGGGTEVVVK	abs. corr.	2.04

Using the record for P018.S.11.A.A03 (antibody, V domains shown, V regions on human Ig constant parts; also called AB134_20) VH: QSLEESGGDLVKPGASLTLPCTASGFTLSGYWMCWVRQAPGKGLEWIGCIYNGDGSTYYASWAKGRFTISKTSSTTVTLQMTSLTAADTATYFCARDSNGWGAYGLWGPGTLVTVSS VL: AIEMTQTPSSVSAAVGGTVTIDCQASQSIGSYLSWYQQKPGQPPKLLIYDASDLASGVPSRFSGSGSGTEFTLTISGVQSDDAATYYCQGGYYSSATEIAFGGGTEVVVK , report its Functional assay Cross-linked by F(ab′)2 fragment IL-8.
2.01
